Test system: RARb:RXRa (NR concentration 270 nM, RXRa partner concentration 90 nM)
Experiment: PBM binding z-score (relative to random genomic background probes); higher = stronger binding; sequences stand for … in GC…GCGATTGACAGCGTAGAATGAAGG
Please note: Fulfilled applies when PBM binding z-score is 4 or greater, and Not fulfilled applies otherwise.

// below: answered sequences
IN: # bool: PBM binding z-score of GATACACGGTCAAGGCCAGAGTACGCGTATTGAT >= 4
OUT: Not fulfilled

IN: Queued: ATATGTAGGTTAGGGTCATTCCGAAAGTAGGGAA
OUT: Not fulfilled

IN: Repeat with TCTCGGAGGACACGAAAGGGCAGAGCTCGACATC
OUT: Not fulfilled

Others:
IN: Can CAAAATAGGTCAAGAGGTCAAAGTCCGCTTCCCG be said to have PBM binding z-score at or above 4?
OUT: Fulfilled

IN: # repeat for CGAGCTAGGTCACCAGGACAGTGAAGAGGTTGGA
OUT: Fulfilled

IN: Try this sequence next: CGTCCAAGGTCAGTGAGGTCAGTGAATGCCGAGT
OUT: Fulfilled

IN: Consider next the sequence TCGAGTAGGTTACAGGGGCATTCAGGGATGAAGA in the same way.
OUT: Not fulfilled

IN: Also CTATGTAGGTTAAGGGGGTCATCCAGTTTGAAAG ?
OUT: Not fulfilled

====

Test system: RARg:RXRa (NR concentration 270 nM, RXRa partner concentration 90 nM)
Assay: PBM binding z-score (relative to random genomic background probes); higher = stronger binding; sequences stand for … in GC…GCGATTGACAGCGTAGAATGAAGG
Respond with satisfied for PBM binding z-score values of 2 and above, not satisfied for values below.

IN: Check this sequence for PBM binding z-score at or above 2: CCTCGGAGGACAGAAGGTCAGATCTGTCCGCTTT
OUT: satisfied

IN: Further, for GCTAGTTGGTCAGTAAATGGTCACACACCGGTCG ?
OUT: not satisfied

IN: Follow-up entry: AGTGAAAGTTCAGGACGAGGTAACGTAAAGCACG
OUT: satisfied

IN: Can you handle CCTACTGGGCCATTCAGAGGTCACTGATCATATG next?
OUT: satisfied

IN: Same read-out for TCGAGTAGGTTCCGGGGGCATTCAGGGATGAAGA ?
OUT: not satisfied

IN: Query CCTACTGGGCCAAAAAGGTAATTGATGCCGATAA next
OUT: not satisfied

IN: Note, next up: CCGAGTAGGTTACGAGGGGGCATTTAGTGCGAAT
OUT: satisfied

IN: And then CCTACTGGGCCAAAGGTCTTTGATTCCAATGCTC , what is it?
OUT: not satisfied

IN: TAGCCTCGGTCATTCAGGGGCCAGTATAGAAAGC , same question.
OUT: satisfied

IN: What about CCGACGGGGGCAAGGTTACCATAACGCACAGCCA ?
OUT: satisfied

IN: Moving on to AGTCCAAGTTCACTAGGTAACGTAAGATTCAGCT
OUT: satisfied

IN: Can you handle GATTACGGGTCAAAGGTTATAGCATGAATAGAAT next?
OUT: satisfied

====

Each item that follows carries a reported PBM binding z-score.
Test system: PPARg DBDmut IVT, anti-PPARg (DBD mutation: PPARg1 K132A/R137A, NR concentration 270 nM)
Experiment: PBM binding z-score (relative to random genomic background probes); higher = stronger binding; sequences stand for … in GC…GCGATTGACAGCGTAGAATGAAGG
Quick one: just the number, no unit, thanks!

IN: Need PBM binding z-score, item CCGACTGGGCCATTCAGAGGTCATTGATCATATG
OUT: -0.8

---
IN: Which PBM binding z-score is reported for this sequence? AGAATGAGGTTAGCAAAGATCAGGGAAACGCTTG
OUT: 0.613

IN: Further, for CCTGCTAGGTCAATGGTCAGCTCAAGCAGCTCGC ?
OUT: -0.398

IN: Now this one: CCTACTGGGCCATTCAGAGGTCATTGTTCATATG
OUT: -0.495
